Some molecules, each annotated with its measured MBC.
test system: Staphylococcus aureus; test: Bactericidal activity against Staphylococcus aureus CIP 54127; assay type: functional
Quick note: give the figure in µM, leave out the unit.

Input line: Query the reported MBC for Staphylococcus aureus; item: CCOP(=O)(OCC)C(Nc1ccccc1Cl)c1cc(Cn2cc(Cn3c(=O)cc(C)c4ccccc43)nn2)ccc1O (stereo not given)
Output line: 500

Input line: Requested read-out MBC, target or system Staphylococcus aureus, entry Cc1cc(=O)n(Cc2cn(Cc3ccc(O)c(C=O)c3)nn2)c2ccc(Br)cc12
Output line: 11000

More entries:
Input line: Provide value of MBC for this record tested with Staphylococcus aureus: CC1(C)S[C@@H]2[C@H](NC(=O)[C@H](N)c3ccccc3)C(=O)N2[C@H]1C(=O)O [AMPICILLIN]
Output line: 270

Input line: # get_value(readout= MBC, system= Staphylococcus aureus) for CCOP(=O)(OCC)C(Nc1ccc(I)cc1)c1cc(Cn2cc(Cn3c(=O)cc(C)c4cc(F)ccc43)nn2)ccc1O (stereo not given)
Output line: 220

Input line: Item CCOP(=O)(OCC)C(Nc1ccccc1)c1cc(Cn2cc(Cn3c(=O)cc(C)c4cc(Br)ccc43)nn2)ccc1O (stereo not given) with Staphylococcus aureus - MBC?
Output line: 240

Input line: Kindly state the measured MBC obtained for CCOP(=O)(OCC)C(Nc1ccccc1Cl)c1cc(Cn2cc(Cn3c(=O)cc(C)c4cc(Br)ccc43)nn2)ccc1O (stereo not given) with Staphylococcus aureus.
Output line: 440

Input line: MBC of CCOP(=O)(OCC)C(Nc1ccccc1OC)c1cc(Cn2cc(Cn3c(=O)cc(C)c4ccccc43)nn2)ccc1O (stereo not given) on Staphylococcus aureus?
Output line: 500

Input line: Enter reported MBC observed with Staphylococcus aureus for CCOP(=O)(OCC)C(Nc1ccccc1)c1cc(Cn2cc(Cn3c(=O)cc(C)c4ccccc43)nn2)ccc1O (stereo not given)
Output line: 1070

Input line: Recorded MBC for CCOP(=O)(OCC)C(Nc1ccc(C)cc1)c1cc(Cn2cc(Cn3c(=O)cc(C)c4cc(F)ccc43)nn2)ccc1O (stereo not given) with Staphylococcus aureus, please?
Output line: 240

Input line: Enter reported MBC observed with Staphylococcus aureus for CCOP(=O)(OCC)C(Nc1ccccc1Br)c1cc(Cn2cc(Cn3c(=O)cc(C)c4cc(Br)ccc43)nn2)ccc1O (stereo not given)
Output line: 420

Input line: Query the reported MBC for Staphylococcus aureus; item: Cc1cc(=O)n(Cc2cn(Cc3ccc(O)c(C=O)c3)nn2)c2ccc(F)cc12
Output line: 3190

Input line: Lab note: need MBC with Staphylococcus aureus for entry CCOP(=O)(OCC)C(Nc1ccccc1OC)c1cc(Cn2cc(Cn3c(=O)cc(C)c4cc(Br)ccc43)nn2)ccc1O (stereo not given) , please look it up.
Output line: 450

Input line: Checklist item: MBC tested on Staphylococcus aureus, entry CO[C@H]1/C=C/O[C@@]2(C)Oc3c(C)c(O)c4c(O)c(c(/C=N/N5CCN(C)CC5)c(O)c4c3C2=O)NC(=O)/C(C)=C\C=C\[C@H](C)[C@H](O)[C@@H](C)[C@@H](O)[C@@H](C)[C@H](OC(C)=O)[C@@H]1C [RIFAMPIN] , value?
Output line: 150

Input line: Param readout= MBC; system= Staphylococcus aureus; entry= Cc1cc(=O)n(Cc2cn(Cc3ccc(O)c(C=O)c3)nn2)c2ccccc12 ; returns value.
Output line: 210

Input line: Which measured MBC belongs to CCOP(=O)(OCC)C(Nc1ccc(C)cc1)c1cc(Cn2cc(Cn3c(=O)cc(C)c4ccccc43)nn2)ccc1O (stereo not given) , tested on Staphylococcus aureus?
Output line: 520

All values here come from ChEMBL document CHEMBL5505983.
